Sourced from patent US9216964B2

- Test system: hedgehog signaling pathway
- Experiment: Gli-Luc Reporter Assay for Hh Pathway Inhibition (TMHh-12 cells, pTA-8×Gli-Luc reporter)
- Assay type: cell-based, Mouse
- Experimental Parameters: Mus musculus, TMHh12, enzymatic and cellular assays for the inhibition of hedgehog signaling pathways; read-out: IC50 Ranges
Property Measured: IC50

Some solved cases for reference:
Cc1ccc(Nc2ncnc3c2CCN(CCS(C)(=O)=O)C3)cc1-c1cc2ccccc2cn1
10 to 100 nM
Cc1ccc(-c2nc(Nc3cccc4c3CCN(C3CS(=O)(=O)C3)C4)ccc2Cl)nc1
0.001 to 1 nM
COc1ccc(-c2cc(Nc3cccc4c3CCN(C3CCS(=O)(=O)CC3)C4)ccc2C)nn1
1 to 10 nM
Clc1ccc(Nc2cccc3c2CCN(Cc2cccnc2)C3)cc1-c1ncc(-c2ccccc2)[nH]1
10 to 100 nM

Q. Please report IC50 for the following compound: CS(=O)(=O)CCN1CCc2c(cccc2Nc2ccc(Cl)c(-c3ccc(F)cn3)n2)C1
A. 10 to 100 nM

Q. Fill in IC50 for record CS(=O)(=O)N1CCc2c(cccc2Nc2ccc(Cl)c(-c3ccc(C#N)cc3)c2)C1
A. 10 to 100 nM

Q. Could you please provide reported IC50 for CNc1ncc2nc(-c3cc(Nc4cccc5c4CCN(S(C)(=O)=O)C5)ccc3C)sc2n1 ? Thanks!
A. 10 to 100 nM
